Entry source: PubChem BioAssay (NCI)

system: OVCAR-8 ovarian; experiment: NCI-60 one-dose screen, 48 h; conditions: 10 µM
This is part of a sample that, as a whole, favours compounds with a hit. Of some 83,000 tested, about 20% had one in any assay. Active and inactive are the calls of the source. The calls were made as follows: active = growth percent below 10; inactive = the rest.
The reply should be one of these categories: t for active, f for inactive

Illustrative cases are given below, each with its answer.
# molecule, cat
data = [
    ("COc1cc2cc(Oc3ccc(NC(=O)c4ccc(Cl)c(C(F)(F)F)c4)cc3)c(C)nc2cc1OC", "f"),
    ("Nc1nccc(OCCO)n1", "f"),
    ("COc1ccc2c(c1)C(=O)/C(=C/c1ncc([N+](=O)[O-])n1C)O2", "t"),
    ("CC(=O)OC1C=CC(OC(C)=O)O1 (stereo not given)", "f"),
    ("CC(=O)OC/C=C(/C)C[P+](c1ccccc1)(c1ccccc1)c1ccccc1", "f"),
]

Problem: Test call for this molecule, please: CC(C)c1cc(N=O)cc(C(C)C)c1O
Result: f

Problem: // repeat for NS(=O)(=O)Oc1ccc(-c2ccc3sccc3c2)cc1 and report
Result: f

Problem: // repeat for CCc1c2c(nc3ccc(OC(=O)N4CCC(N5CCCCC5)CC4)cc13)-c1cc3c(c(=O)n1C2)COC(=O)[C@]3(O)CC and report
Result: f

Problem: // repeat for CCC(C)[C@H](NC(C)=O)C(=O)N[C@@H](CCCNC(=N)N)C(=O)N[C@@H](CCCCN)C(=O)N[C@@H](CC1CCC(O)CC1)C(=O)NC(C(=O)N[C@@H](CCSC)C(=O)N[C@@H](CCCNC(=N)N)C(=O)N[C@@]1(C)CCC/C=C\CCC[C@@](C)(C(=O)NC(C(=O)N[C@@H](CCC(=O)O)C(=O)N[C@@H](CC(C)C)C(=O)N[C@H](C(=O)N[C@@H](CCC(=O)O)C(N)=O)C(C)C)[C@@H](C)O)NC(=O)[C@H](CCC(N)=O)NC(=O)[C@H](CC(C)C)NC(=O)[C@H](CC(C)C)NC1=O)[C@@H](C)O (stereo not given in full) and report
Result: f

Problem: // repeat for CN(C)c1ccc(/C=N/NC(=O)c2cccc3ccccc23)c(Cl)c1 and report
Result: f
